Here, each record is paired with measured Ratio IC50 data.
- Organism: Homo sapiens
- ASSAY NOTES: Selectivity ratio of IC50 for TCPTP (unknown origin) to IC50 for recombinant GST-tagged PTP1B catalytic domain (1 to 321 residues) (unknown origin)
Please give only the number in your answer, with no unit.

Some entries whose results are on file:
CC(C)(C)c1ccc(Oc2ccc(-c3cnc(-c4ccc(O)c(O)c4)o3)cc2)cc1    27.3
Oc1ccc(-c2ncc(-c3ccc(Oc4ccc(-c5ccccc5)cc4)cc3)o2)cc1O    0.8

Now turn to the next molecule.
Look up Ratio IC50: `Cc1ccc(Oc2ccc(C(=O)CSc3nnc(-c4ccc(O)c(O)c4)o3)cc2)cc1`
2.24
